experiment: Compound cytotoxicity measured by an ATP content assay as a counter-screen for lead compounds in human astrocytes; details: human astrocytes viability, ATP luminescence; series mostly up to 46.1 µM
Inconclusive results are not listed. Activity calls are given as the source filed them. Calls follow the shape of the dose curve; as a rule, active = well fitted cell-killing curve with a large enough effect; inconclusive = small, poorly fitted or top-dose-only effect, or effect the other way; inactive = flat fitted curve, though single readings scatter.
Respond using exactly one of the listed classes: yes (1) (active), no (0) (inactive)

Enquiry: Would you mind telling me which call this test gave CC(O)CN1CCN(CC(=O)[O-])CCN(CC(=O)[O-])CCN(CC(=O)[O-])CC1.[Gd+3] (configuration not stated) ?
Return: no (0)

Enquiry: Would you mind telling me which call this test gave Oc1ccc([C@H]2CNCc3c2ccc(O)c3O)cc1O ?
Return: no (0)

Enquiry: Would you mind telling me which call this test gave O=C1C=CC[C@@H]2[C@H]3CCCN4CCC[C@@H](CN12)[C@@H]34 ?
Return: no (0)

Enquiry: Would you mind telling me which call this test gave CC[n+]1c(-c2ccccc2)c2cc(N)ccc2c2ccc(N)cc21 ?
Return: no (0)

Enquiry: Would you mind telling me which call this test gave O=c1c2ccccc2[se]n1-c1ccccc1 ?
Return: yes (1)

Enquiry: Would you mind telling me which call this test gave COP(=S)(OC)SCN1C(=O)c2ccccc2C1=O ?
Return: no (0)

Enquiry: Would you mind telling me which call this test gave O=C(Nc1ccc(Br)cc1)c1cc(Br)cc(Br)c1O ?
Return: yes (1)
